experimentalProtocol: self-splicing fitness, log relative to wild type (ln ratio); higher = more splicing; Tetrahymena group I intron in knt gene, E. coli kanamycin selection, DiMSum; sequences stand for … in CUCUCU…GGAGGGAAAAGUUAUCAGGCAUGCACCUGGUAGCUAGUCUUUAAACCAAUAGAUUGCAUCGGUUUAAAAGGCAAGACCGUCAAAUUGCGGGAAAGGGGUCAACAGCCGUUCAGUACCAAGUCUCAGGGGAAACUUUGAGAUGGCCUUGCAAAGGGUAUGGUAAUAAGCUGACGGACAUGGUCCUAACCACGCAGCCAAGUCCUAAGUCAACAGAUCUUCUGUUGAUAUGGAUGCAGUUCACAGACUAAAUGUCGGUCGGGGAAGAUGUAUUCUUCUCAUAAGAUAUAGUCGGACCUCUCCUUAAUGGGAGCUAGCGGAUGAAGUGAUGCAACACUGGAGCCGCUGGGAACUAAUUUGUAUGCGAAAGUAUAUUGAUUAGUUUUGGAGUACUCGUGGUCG;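 also: selection with 25 µg/mL kanamycin versus none on LB agar overnight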
experimentalContext: 37 °C
Entries get a class label from measured self-splicing fitness (ln). See ranges: bin A: < -2; bin B: ≥ -2 and < -0.4; bin C: ≥ -0.4

INSERT INTO measurements (entrysequence, categorylabel) VALUES
  ('AACCAGCAAUAUUACGUAGC', 'bin A'),
  ('GCCAAGCAAUAUUACGGGAU', 'bin B'),
  ('ACUCAGCAAUAUUACGCCCC', 'bin C'),
  ('GUUUAGCAAUAUUACGAGCG', 'bin B'),
  ('GAUAAGCAAUAUUACGCCAA', 'bin A'),
  ('GCAUAGCAAUAUUACGGCCC', 'bin B'),
  ('AGGUAGCAAUAUUACGUGAU', 'bin B'),
  ('UGGUAGCAAUAUUACGCCUU', 'bin C'),
  ('AGUCAGCAAUAUUACGCGUC', 'bin B'),
  ('UACUAGCAAUAUUACGCCCA', 'bin C'),
  ('CUCCAGCAAUAUUACGACAU', 'bin A');

Cited source for all entries: the supplement of paper PMC7877785
